The measured values listed here are drawn from ChEMBL document CHEMBL1140266.

biological target: Peroxisome proliferator-activated receptor alpha (Homo sapiens, UniProt Q07869); type: functional, cell-based, COS-1
Sequence (Q07869 whole entry): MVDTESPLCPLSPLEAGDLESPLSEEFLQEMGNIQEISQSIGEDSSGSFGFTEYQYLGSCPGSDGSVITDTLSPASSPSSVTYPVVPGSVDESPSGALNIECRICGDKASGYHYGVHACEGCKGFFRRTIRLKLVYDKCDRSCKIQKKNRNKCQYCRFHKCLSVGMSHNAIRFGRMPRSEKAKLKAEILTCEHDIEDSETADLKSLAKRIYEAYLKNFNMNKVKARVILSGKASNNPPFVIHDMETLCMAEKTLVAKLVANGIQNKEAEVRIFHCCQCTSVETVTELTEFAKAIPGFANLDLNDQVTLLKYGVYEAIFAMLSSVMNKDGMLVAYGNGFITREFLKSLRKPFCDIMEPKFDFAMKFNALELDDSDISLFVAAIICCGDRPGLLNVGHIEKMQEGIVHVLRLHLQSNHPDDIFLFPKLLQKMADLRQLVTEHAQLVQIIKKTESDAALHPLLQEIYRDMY
Description: Agonist activity against human PPARalpha in COS-1 cell Gal4 assay
pEC50: −log10 of the molar value.
# label = yes (1) if pEC50 >= 7 else no (0)

>>> print(df.to_string())
                               input_smiles                            assayed_target  discrete_label
0  CC[C@]1(C(=O)O)CCc2ccc(OCCCOc3ccc(C4CCC5(CC4)CC5)cc3Cl)cc2O1  Peroxisome proliferator-activated receptor alpha (Homo sapiens, UniProt Q07869)          no (0)
1  CC[C@]1(C(=O)O)CCc2ccc(OCCCOc3ccc(OCC(F)(F)F)cc3Cl)cc2O1  Peroxisome proliferator-activated receptor alpha (Homo sapiens, UniProt Q07869)         yes (1)
2  CC(C)c1ccc(OCCCOc2ccc3c(c2)O[C@@](C)(C(=O)O)CC3)c(Cl)c1  Peroxisome proliferator-activated receptor alpha (Homo sapiens, UniProt Q07869)         yes (1)
3  CC[C@]1(C(=O)O)CCc2ccc(OCCCOc3ccc(C(C)(C)C)cc3Cl)cc2O1  Peroxisome proliferator-activated receptor alpha (Homo sapiens, UniProt Q07869)         yes (1)

Test whether the compound C[C@]1(C(=O)O)CCc2ccc(OCCCOc3ccc(OCC(F)(F)F)cc3Cl)cc2O1 records pEC50 of 7 or higher. yes (1)

Test whether the compound CC1(C)CCC(c2ccc(OCCCOc3ccc4c(c3)O[C@@](C)(C(=O)O)CC4)c(Cl)c2)CC1 records pEC50 of 7 or higher. no (0)

Test whether the compound CC[C@]1(C(=O)O)CCc2ccc(OCCCOc3ccc(C(F)(F)F)cc3Cl)cc2O1 records pEC50 of 7 or higher. yes (1)
